# assay-protocol: qHTS of pediatric cancer cell lines to identify multiple opportunities for drug repurposing: Primary screen for SK-N-MC cells (AID 1347093)
# condition-parameters: SK-N-MC viability, CellTiter-Glo luminescence, 48 h; series mostly up to 46 µM
Records with an inconclusive call do not appear. Calls of active or inactive are those of the source. Calls follow the shape of the dose curve; as a rule, active = well fitted cell-killing curve with a large enough effect; inconclusive = small, poorly fitted or top-dose-only effect; inactive = no such curve, though single readings can be large or run the other way.
Classes used: 1 for active, -1 for inactive

* C#CCN[C@@H]1CCc2ccccc21 | -1
* O=S(=O)(c1cccc2cnccc12)N1CCCNCC1 | -1
* COCCCOc1cc(C[C@@H](C[C@H](N)[C@@H](O)C[C@H](C(=O)NCC(C)(C)C(N)=O)C(C)C)C(C)C)ccc1OC | -1
* CN1CCN(c2c(F)cc3c(=O)c(C(=O)O)cn(CCF)c3c2F)CC1 | -1
* Cc1noc(NS(=O)(=O)c2ccc(N)cc2)c1C | -1
* CC[C@H](NC(C)C)[C@H](O)c1ccc(O)c2[nH]c(=O)ccc12 | -1
* CN(C)CCc1c[nH]c2ccc(CS(=O)(=O)N3CCCC3)cc12 | -1
* COc1c(N2CCNC(C)C2)c(F)cc2c(=O)c(C(=O)O)cn(C3CC3)c12 (stereo unspecified) | -1
* COc1ncnc(NS(=O)(=O)c2ccc(N)cc2)c1OC | -1
* COc1cc2nc(N3CCCN(C)CC3)nc(NC3CCN(Cc4ccccc4)CC3)c2cc1OC | 1
* CN1CCN(c2c(F)cc3c(=O)c(C(=O)O)cn4c3c2OCN4C)CC1 | -1
* CNS(=O)(=O)Cc1ccc2[nH]cc(CCN(C)C)c2c1 | -1
* C[C@@H]1CN(c2c(F)c(N)c3c(=O)c(C(=O)O)cn(C4CC4)c3c2F)C[C@H](C)N1 | -1
* CCN1CCCC1CNC(=O)c1cc(S(N)(=O)=O)ccc1OC (stereo unspecified) | -1
* Nc1[nH]c(=O)ncc1F | -1
* CCCc1cc(C(N)=S)ccn1 | -1

Value source: PubChem BioAssay (NCATS)
